Target: T1, DFNB31_1, Q9P202
T1 sequence (Q9P202 135-233, limits assumed, looked up): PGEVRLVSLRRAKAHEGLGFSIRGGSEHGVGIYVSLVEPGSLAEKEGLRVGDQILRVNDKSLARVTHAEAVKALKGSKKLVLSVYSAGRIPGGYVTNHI
Assay: holdup assay
Set-up: key: below the threshold = too weak to quantify, mostly under pKd 3.1 to 4
Details: plain residues with an end cap or a label only (N-terminal biotin on a linker: ttds)
MEASURED_ENDPOINT: pKd
Answers are plain numbers.

INSERT INTO assay_data (binder, reported_value) VALUES
  ('VLRLQSETSV [VANGL1, Q8TAA9]', 4.03);

Next binder, please.
Entry IYVPEAQTRL [DLGAP4, Q9Y2H0] has what pKd? 3.96
